Experiment: Selectivity index, ratio of CC50 for human THP1 cells to EC50 for Trypanosoma brucei bloodstream form
Format: toxicity
Settings: read-out: Ratio CC50/EC50
Assign labels as follows, please: true (1) for selectivity ratio below 8; false (0) for selectivity ratio equal to or exceeding 8.

COc1ccc2c(=O)c(O)c(-c3ccc4c(c3)OCO4)oc2c1: false (0)
Cc1csc(-c2oc3ccc(C)cc3c(=O)c2O)c1: false (0)
COc1ccc2oc(-c3cccc(-c4ccc5c(c4)OCO5)c3)c(O)c(=O)c2c1: true (1)
Cc1csc(-c2oc3ccc(O)cc3c(=O)c2O)c1: true (1)
COc1ccc2oc(-c3cc(C)cs3)c(O)c(=O)c2c1: true (1)

For this compound, is selectivity ratio lower than 8? Cc1ccc2oc(-c3ccc(C)s3)c(O)c(=O)c2c1
true (1)

For this compound, is selectivity ratio lower than 8? O=c1c(O)c(-c2c[nH]c3ccccc23)oc2ccc(O)cc12
false (0)

For this compound, is selectivity ratio lower than 8? COc1ccc2c(=O)c(O)c(-c3sccc3C)oc2c1
true (1)

For this compound, is selectivity ratio lower than 8? O=c1c(O)c(-c2cccc(-c3ccc(O)c(O)c3)c2)oc2ccc(O)cc12
false (0)

For this compound, is selectivity ratio lower than 8? COc1cccc2oc(-c3cc(C)cs3)c(O)c(=O)c12
true (1)

For this compound, is selectivity ratio lower than 8? COc1ccc2oc(-c3csc4ccccc34)c(O)c(=O)c2c1
false (0)

---

Biological target: UniProt:P11712
Sequence (P11712 whole entry): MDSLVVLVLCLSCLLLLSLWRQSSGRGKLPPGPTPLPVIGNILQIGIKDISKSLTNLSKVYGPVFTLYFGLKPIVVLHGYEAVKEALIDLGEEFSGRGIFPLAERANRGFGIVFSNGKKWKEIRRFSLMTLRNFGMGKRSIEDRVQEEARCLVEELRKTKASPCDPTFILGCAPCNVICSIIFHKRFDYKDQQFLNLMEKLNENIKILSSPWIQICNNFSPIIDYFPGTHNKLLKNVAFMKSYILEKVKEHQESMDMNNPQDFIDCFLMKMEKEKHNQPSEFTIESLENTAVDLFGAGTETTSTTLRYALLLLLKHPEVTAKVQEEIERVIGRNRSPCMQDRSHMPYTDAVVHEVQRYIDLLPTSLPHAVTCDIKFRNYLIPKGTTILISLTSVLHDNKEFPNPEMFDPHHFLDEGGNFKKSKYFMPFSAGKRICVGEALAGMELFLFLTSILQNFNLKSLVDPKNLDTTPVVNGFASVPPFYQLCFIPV
Assay: Inhibition of human microsomal CYP2C9 expressed in baculovirus infected insect cells at 10 uM using luciferin-H as substrate preincubated with enzyme/substrate mixture for 30 mins followed by further incubation with NADPH for 30 mins by CYP450 luciferase Glo assay relative to control
Assay type: ADME
Details: probe luciferin-H
Measured inhibition at 0.5 h, 10 µM determines class: class A (below 30%), class B (30% to below 50%), class C (50% or more)

Solved entries (count: 5):
COc1ccc2oc(-c3c[nH]c4ccccc34)c(O)c(=O)c2c1: class A
Cc1csc(-c2oc3cccc(O)c3c(=O)c2O)c1: class C
Cc1ccc2oc(-c3ccc(C)s3)c(O)c(=O)c2c1: class A
COc1ccc2oc(-c3csc4ccccc34)c(OC(=O)N(C)C)c(=O)c2c1: class A
CCCOc1c(-c2csc3ccccc23)oc2ccc(OC)cc2c1=O: class A

Input O=c1c(O)c(-c2csc3ccccc23)oc2cc(Cl)ccc12 ; output its category
class A

---

Biological target: CYP2D6 (Homo sapiens)
Sequence (P10635 whole entry): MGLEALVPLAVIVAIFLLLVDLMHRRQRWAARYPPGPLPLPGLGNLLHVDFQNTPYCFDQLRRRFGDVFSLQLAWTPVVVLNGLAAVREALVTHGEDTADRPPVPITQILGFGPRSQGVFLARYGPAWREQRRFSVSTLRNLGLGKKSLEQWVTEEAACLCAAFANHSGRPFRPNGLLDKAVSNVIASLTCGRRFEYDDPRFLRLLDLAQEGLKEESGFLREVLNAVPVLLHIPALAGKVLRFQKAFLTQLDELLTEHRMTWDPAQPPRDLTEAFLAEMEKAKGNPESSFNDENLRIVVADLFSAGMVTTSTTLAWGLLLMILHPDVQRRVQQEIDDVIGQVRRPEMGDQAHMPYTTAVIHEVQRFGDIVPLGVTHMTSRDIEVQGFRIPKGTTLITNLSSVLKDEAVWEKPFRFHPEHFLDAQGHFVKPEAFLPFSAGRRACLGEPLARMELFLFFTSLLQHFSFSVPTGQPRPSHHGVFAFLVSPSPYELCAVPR
Assay: Inhibition of human microsomal CYP2D6 expressed in baculovirus infected insect cells at 10 uM using luciferin-ME as substrate preincubated with enzyme/substrate mixture for 30 mins followed by further incubation with NADPH for 30 mins by CYP450 luciferase Glo assay relative to control
Format: ADME
Conditions: probe luciferin-ME
Catalogue of inhibition at 0.5 h, 10 µM readings, one per entry.
Only the number, expressed in %, is required.

Cc1csc(-c2oc3ccc(C)cc3c(=O)c2O)c1: 25.3
COc1ccc2oc(-c3cn(C)c4ccccc34)c(O)c(=O)c2c1: 3.57
COc1ccc2c(=O)c(O)c(-c3sccc3C)oc2c1: 9.1
COc1ccc2oc(-c3csc4ccccc34)c(O)c(=O)c2c1: 26.2
O=c1c(O)c(-c2ccco2)oc2ccc(O)cc12: 36.2
COc1ccc2oc(-c3ccco3)c(O)c(=O)c2c1: 50.8
COc1ccc2oc(-c3csc4ccccc34)c(OC(C)=O)c(=O)c2c1: 30.8
O=c1c(O)c(-c2c[nH]c3ccccc23)oc2ccc(O)cc12: -0.42
O=c1c(O)c(-c2csc3ccccc23)oc2ccccc12: 6.45
COc1ccc2c(=O)c(O)c(-c3ccco3)oc2c1: 23.4

Memo: COc1ccc2c(=O)c(O)c(-c3cc(C)cs3)oc2c1 , reported inhibition at 0.5 h, 10 µM: 33.6

Memo: Cc1csc(-c2oc3ccc(O)cc3c(=O)c2O)c1 , reported inhibition at 0.5 h, 10 µM: 40.1

---

Target: Albumin (Bos taurus, UniProt P02769)
Sequence (P02769 whole entry): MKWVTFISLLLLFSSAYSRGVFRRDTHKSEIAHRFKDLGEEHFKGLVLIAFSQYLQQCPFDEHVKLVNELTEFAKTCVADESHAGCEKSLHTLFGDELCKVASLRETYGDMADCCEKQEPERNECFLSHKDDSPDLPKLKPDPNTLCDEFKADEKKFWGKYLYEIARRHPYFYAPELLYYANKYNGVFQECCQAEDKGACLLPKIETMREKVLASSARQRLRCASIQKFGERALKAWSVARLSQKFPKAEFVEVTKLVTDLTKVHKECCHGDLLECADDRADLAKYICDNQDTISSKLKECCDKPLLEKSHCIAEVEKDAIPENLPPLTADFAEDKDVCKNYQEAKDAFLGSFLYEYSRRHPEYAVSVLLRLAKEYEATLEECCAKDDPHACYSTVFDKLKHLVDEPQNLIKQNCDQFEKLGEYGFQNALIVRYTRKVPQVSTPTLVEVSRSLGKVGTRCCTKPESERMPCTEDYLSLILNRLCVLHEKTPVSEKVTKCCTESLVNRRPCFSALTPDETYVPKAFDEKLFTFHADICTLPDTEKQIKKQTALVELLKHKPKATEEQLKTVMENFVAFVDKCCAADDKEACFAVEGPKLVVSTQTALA
Experiment: Binding affinity to bovine serum albumin by fluorescence based assay
pKd: −log10 of the molar value.
metric: pKd

Memo: COc1ccc2oc(-c3csc4ccccc34)c(O)c(=O)c2c1 , reported pKd: < 4.92

---

Assay: Chemical stability of compound in PBS assessed as decrease in absorbance at 60 uM at pH 7 to 8 and 25 degC measured within 50 mins under dark conditions by UV-vis spectrophotometry analysis
Type: physicochemical
Settings: read-out: Drug degradation
metric: degraded at 50 min, 60 µM (%)
Only the number, expressed in %, is required.

Memo: COc1ccc2oc(-c3csc4ccccc34)c(O)c(=O)c2c1 , reported degraded at 50 min, 60 µM: 80

---

Test: Cytotoxicity against human THP1 cells by MTT assay
Assay type: cell-based, THP-1
Catalogue of CC50 readings, one per entry.

Cc1ccc2oc(-c3csc4ccccc34)c(O)c(=O)c2c1: < 12.5 µM
O=c1c(O)c(-c2csc3ccccc23)oc2ccc(Br)cc12: 25 to 50 µM

Memo: COc1ccc2c(=O)c(O)c(-c3sccc3C)oc2c1 , reported CC50: 12.5 to 25 µM

Memo: O=c1c(O)c(-c2csc3ccccc23)oc2ccc(F)cc12 , reported CC50: 25 to 50 µM

Memo: COc1ccc2oc(-c3ccc4ncccc4c3)c(O)c(=O)c2c1 , reported CC50: > 100 µM

Memo: COc1ccc2oc(-c3csc4ccccc34)c(O)c(=O)c2c1 , reported CC50: 25 to 50 µM

Memo: COc1ccc2oc(-c3cccc(-c4ccc5c(c4)OCO5)c3)c(O)c(=O)c2c1 , reported CC50: 25 to 50 µM

Memo: Cc1ccc2oc(-c3ccc(C)s3)c(O)c(=O)c2c1 , reported CC50: 25 to 50 µM

Memo: O=c1c(O)c(-c2csc3ccccc23)oc2cc(F)ccc12 , reported CC50: 25 to 50 µM

Memo: COc1ccc2c(=O)c(O)c(-c3ccco3)oc2c1 , reported CC50: > 100 µM

---

System: Trypanosoma cruzi
Test: Antitrypanosomal activity against intracellular amastigote stage of Trypanosoma cruzi Y infected in human U2OS cells measured after 96 hrs by DRAQ5 dye based microscopic analysis
Type: functional, organism-based
metric: EC50 (µM)
Only the number, expressed in µM, is required.

Memo: COc1ccc2oc(-c3csc4ccccc34)c(O)c(=O)c2c1 , reported EC50: 0.9

---

Target: CYP3A4 (Homo sapiens, UniProt P08684)
Sequence (P08684 whole entry): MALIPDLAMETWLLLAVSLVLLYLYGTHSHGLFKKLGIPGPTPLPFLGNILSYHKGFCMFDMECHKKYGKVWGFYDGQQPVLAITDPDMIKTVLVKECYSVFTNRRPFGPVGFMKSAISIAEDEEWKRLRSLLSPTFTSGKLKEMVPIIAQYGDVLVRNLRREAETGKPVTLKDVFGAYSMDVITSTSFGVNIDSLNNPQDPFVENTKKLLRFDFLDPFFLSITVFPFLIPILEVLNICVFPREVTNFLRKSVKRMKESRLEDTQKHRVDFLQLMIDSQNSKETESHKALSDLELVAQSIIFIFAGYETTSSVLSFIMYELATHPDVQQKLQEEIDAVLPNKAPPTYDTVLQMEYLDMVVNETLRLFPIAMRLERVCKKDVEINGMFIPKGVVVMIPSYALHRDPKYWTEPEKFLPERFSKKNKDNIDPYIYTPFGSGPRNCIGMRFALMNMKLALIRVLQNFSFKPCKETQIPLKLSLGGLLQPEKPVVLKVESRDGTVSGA
Assay: Inhibition of human microsomal CYP3A4 expressed in baculovirus infected insect cells at 10 uM using luciferin-IPA as substrate preincubated with enzyme/substrate mixture for 30 mins followed by further incubation with NADPH for 30 mins by CYP450 luciferase Glo assay relative to control
Assay type: ADME
Conditions: probe luciferin-IPA
Tick Criterion met if inhibition at 0.5 h, 10 µM is 10% or greater. Tick Criterion not met if inhibition at 0.5 h, 10 µM is less than 10%.

CCCCCCCCCCCCCCCCOP(=O)([O-])OCC[N+](C)(C)C: Criterion not met

Would you say O=c1c(O)c(-c2ccco2)oc2cc(O)ccc12 shows inhibition at 0.5 h, 10 µM at minimum 10%?
Criterion met

Would you say COc1ccc2oc(-c3csc4ccccc34)c(O)c(=O)c2c1 shows inhibition at 0.5 h, 10 µM at minimum 10%?
Criterion met

Would you say COc1ccc2oc(-c3c[nH]c4ccccc34)c(O)c(=O)c2c1 shows inhibition at 0.5 h, 10 µM at minimum 10%?
Criterion met

Would you say COc1ccc2oc(-c3csc4ccccc34)c(OC(=O)C(C)(C)C)c(=O)c2c1 shows inhibition at 0.5 h, 10 µM at minimum 10%?
Criterion met

Would you say COc1ccc2c(=O)c(O)c(-c3cc(C)cs3)oc2c1 shows inhibition at 0.5 h, 10 µM at minimum 10%?
Criterion met

Would you say Cc1csc(-c2oc3ccc(O)cc3c(=O)c2O)c1 shows inhibition at 0.5 h, 10 µM at minimum 10%?
Criterion met

---

Catalogue of viability at 48 h readings, one per entry.
Experiment: Cytotoxicity against human A549 cells assessed as cell growth at […] incubated for 48 hrs by Celltiter-Glo luminescence assay relative to control
Assay type: cell-based
Design: dose or concentration left out as unconfirmed
Details: read-out: Activity
Only the number, expressed in %, is required.

Example results:
COc1cccc2oc(-c3cc(C)cs3)c(O)c(=O)c12: 25.3
COc1ccc2c(=O)c(O)c(-c3ccc4c(c3)OCO4)oc2c1: 43.2
COc1ccc2oc(-c3cccc(-c4ccc(OC)c(OC)c4)c3)c(O)c(=O)c2c1: 19.5

Memo: O=c1c(O)c(-c2ccco2)oc2cc(O)ccc12 , reported viability at 48 h: 108

Memo: COc1ccc2c(=O)c(O)c(-c3cc(C)cs3)oc2c1 , reported viability at 48 h: 80.9

Memo: CCCOc1c(-c2csc3ccccc23)oc2ccc(OC)cc2c1=O , reported viability at 48 h: 60.1

Memo: O=c1c(O)c(-c2csc3ccccc23)oc2ccccc12 , reported viability at 48 h: 50.3

Memo: COc1ccc2oc(-c3c[nH]c4ccccc34)c(O)c(=O)c2c1 , reported viability at 48 h: 20.9

Memo: O=c1c(O)c(-c2cccc(-c3ccc(O)c(O)c3)c2)oc2ccc(O)cc12 , reported viability at 48 h: 32.5

Memo: COc1ccc2c(=O)c(O)c(-c3ccco3)oc2c1 , reported viability at 48 h: 102

Memo: Cc1csc(-c2oc3ccc(O)cc3c(=O)c2O)c1 , reported viability at 48 h: 93.8

Memo: O=c1c(O)c(-c2csc3ccccc23)oc2ccc(Br)cc12 , reported viability at 48 h: 119
